- System Name: serotonin 2 (5-HT2) receptor (Rattus norvegicus, UniProt P14842)
- Sequence (P14842 whole entry): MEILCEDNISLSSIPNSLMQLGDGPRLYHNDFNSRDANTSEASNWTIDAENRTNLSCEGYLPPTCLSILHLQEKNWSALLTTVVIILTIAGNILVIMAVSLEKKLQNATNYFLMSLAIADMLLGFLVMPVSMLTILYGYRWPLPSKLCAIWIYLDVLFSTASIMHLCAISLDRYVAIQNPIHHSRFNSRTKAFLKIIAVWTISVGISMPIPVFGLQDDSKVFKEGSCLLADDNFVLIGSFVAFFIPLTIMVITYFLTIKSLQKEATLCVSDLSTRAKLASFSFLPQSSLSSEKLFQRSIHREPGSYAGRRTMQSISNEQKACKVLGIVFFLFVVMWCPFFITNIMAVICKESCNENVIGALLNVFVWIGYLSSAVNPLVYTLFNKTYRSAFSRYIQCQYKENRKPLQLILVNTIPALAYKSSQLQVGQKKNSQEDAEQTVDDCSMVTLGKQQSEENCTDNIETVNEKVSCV
One threshold, 0.6 nM, splits the recorded Ki values: lower ones are t, equal or higher ones are f.

These solved cases illustrate the format of a correct answer.
CC(=O)NCc1ccc(SCCCN2CCC(c3noc4cc(F)ccc34)CC2)s1    f
NCc1ccc(CCCCN2CCC(c3noc4cc(F)ccc34)CC2)s1    f
CC(=O)NCc1cc(CCN2CCC(c3noc4cc(F)ccc34)CC2)c(C)s1    t

# next compound below
Problem: Confirm or reject: Ki of CC(=O)c1ccc(SCCCN2CCC(c3noc4cc(F)ccc34)CC2)s1 lies strictly below 0.6 nM
Solution: f

Data origin, for the record: patent US5466691A
